Catalogue of Viability % values
# Tested on: Human Skin Normal Cells (Cell System Fb cells)
# PROTOCOL NOTES: Cytotoxicity assay for human skin normal cells, trypan blue
# Type: cell-based
# CONDITION SET: human skin normal cells, 0.5 mM, 3 days
Your answer is read as %, so omit the unit and give the number.

Before answering, review these 3 worked examples.
> print(dat)
                                   molecule     endpoint  assay.result
1  CC(O)c1cc2c(o1)C(=O)c1cccc(O)c1C2=O (single isomer, unassigned; isomer 2) [β-Isomer]  Viability %            10
2  CC(O)c1cc2c(o1)C(=O)c1cccc(O)c1C2=O (racemic) [Racemate]  Viability %            20
3  CC(O)c1cc2c(o1)C(=O)c1cccc(O)c1C2=O (single isomer, unassigned; isomer 2) [α-Isomer]  Viability %            30

Could you now consider this next molecule?
Task item: Give recorded Viability %. CO[C@@]12[C@H](COC(N)=O)C3=C(C(=O)C(C)=C(N)C3=O)N1C[C@@H]1N[C@@H]12 [Mitomycin, mitomycin, reference compound]
Reply: 0

The origin of these recorded values is patent US7910752B2.
